Molecular target: human JAK1 (a.a. 837-1142)
Assay: In vitro JAK kinase assay (HTRF, phosphorylation of a biotinylated peptide), JAK1
Format: biochemical
Conditions: measured at 1 mM ATP; JAK2 IC50 / JAK1 IC50
value kind: IC50 Ratio JAK2/JAK1

Some molecules with known IC50 Ratio JAK2/JAK1 results, for comparison:
molecule=N#CCC1(n2ccc(-c3ncnc4[nH]ccc34)c2)CN(C2CCN(C(=O)c3cccc(C(F)(F)F)c3)CC2)C1 meas_value=3.1
molecule="CC1CC(N2CC(CC#N)(n3cc(-c4ncnc5[nH]ccc45)cn3)C2)CCN1C(=O)c1cccc(F)c1 (single isomer, unassigned) [Example 149]" meas_value=5.0

Now let's try a different one.
INPUT: Name the reported IC50 Ratio JAK2/JAK1 value associated with the molecule N#CCC1(n2cc(-c3ccnc4[nH]ccc34)cn2)CN(C2CCN(C(=O)c3ccc(O)c(F)c3)CC2)C1
OUTPUT: 4.6

----------
Molecular target: human JAK1 (a.a. 837-1142)
Experiment: In vitro JAK kinase assay (HTRF, phosphorylation of a biotinylated peptide), JAK1
Type: biochemical
Settings: measured at 1 mM ATP; JAK2 IC50 / JAK1 IC50
Rule: IC50 Ratio JAK2/JAK1 below 5 gives 1 (yes). Equal to or above 5 gives 0 (no).

smiles_str=N#CCC1(n2ccc(-c3ncnc4[nH]ccc34)c2)CN(C2CCN(C(=O)c3nc(C(F)(F)F)cs3)CC2)C1 label_class="0 (no)"
smiles_str=N#CCC1(n2cc(-c3ncnc4[nH]ccc34)cn2)CN(C2CCN(C(=O)c3cc(C(F)(F)F)ncc3F)CC2)C1 label_class="0 (no)"
smiles_str=N#CCC1(n2cc(-c3ncnc4[nH]ccc34)cn2)CN(C2CCN(S(=O)(=O)C3CCCC3)CC2)C1 label_class="0 (no)"
smiles_str=N#CCC1(n2cc(-c3c(F)cnc4[nH]ccc34)cn2)CN(C2CCN(C(=O)c3ccc(F)c(C#N)c3)CC2)C1 label_class="1 (yes)"
smiles_str=N#CCC1(n2cc(-c3ncnc4[nH]ccc34)cn2)CN(C2CCN(C(=O)OCc3ccccc3)CC2)C1 label_class="0 (no)"
smiles_str=Cc1onc(-c2ccccc2)c1CN1CCC(N2CC(CC#N)(n3cc(-c4ncnc5[nH]ccc45)cn3)C2)CC1 label_class="0 (no)"
smiles_str=N#CCC1(n2ccc(-c3ncnc4[nH]ccc34)c2)CN(C2CCN(C(=O)c3cc(F)cc(C(F)(F)F)c3)CC2)C1 label_class="0 (no)"
smiles_str=N#CCC1(n2cc(-c3ncnc4[nH]ccc34)cn2)CN(C2CCN(Cc3ccnc(Br)c3)CC2)C1 label_class="1 (yes)"

INPUT: Does CCn1nccc1NC(=O)N1CCC(N2CC(CC#N)(n3cc(-c4ncnc5[nH]ccc45)cn3)C2)CC1 have IC50 Ratio JAK2/JAK1 strictly under 5?
OUTPUT: 0 (no)

INPUT: Does CS(=O)(=O)N1CCC(N2CC(CC#N)(n3cc(-c4c(F)cnc5[nH]ccc45)cn3)C2)CC1 have IC50 Ratio JAK2/JAK1 strictly under 5?
OUTPUT: 1 (yes)

INPUT: Does N#CCC1(n2cc(-c3ncnc4[nH]ccc34)cn2)CN(C2CCN(C(=O)Nc3nc(-c4ccc(Cl)cc4)cs3)CC2)C1 have IC50 Ratio JAK2/JAK1 strictly under 5?
OUTPUT: 1 (yes)

INPUT: Does N#CCC1(n2cc(-c3ccnc4[nH]ccc34)cn2)CN(C2CCN(C(=O)c3nc(C(F)(F)F)cs3)CC2)C1 have IC50 Ratio JAK2/JAK1 strictly under 5?
OUTPUT: 0 (no)

INPUT: Does N#CCC1(n2cc(-c3ncnc4[nH]ccc34)cn2)CN(C2CCN(C(=O)c3ccc(-c4ccc(F)c(F)c4)c(F)c3)CC2)C1 have IC50 Ratio JAK2/JAK1 strictly under 5?
OUTPUT: 1 (yes)
